Molecular target: CDK6/CycD1 (Homo sapiens, UniProt Q00534)
Sequence (Q00534 whole entry): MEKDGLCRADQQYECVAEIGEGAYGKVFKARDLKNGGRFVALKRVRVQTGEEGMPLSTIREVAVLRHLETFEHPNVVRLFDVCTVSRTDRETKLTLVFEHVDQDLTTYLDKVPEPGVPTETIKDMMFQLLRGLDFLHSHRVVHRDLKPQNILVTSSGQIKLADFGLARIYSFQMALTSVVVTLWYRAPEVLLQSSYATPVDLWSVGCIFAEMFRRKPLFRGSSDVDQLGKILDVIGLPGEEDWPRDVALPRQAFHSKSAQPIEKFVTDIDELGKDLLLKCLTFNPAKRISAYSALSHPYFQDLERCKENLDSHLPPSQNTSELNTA
Sequence (P24385 whole entry partner): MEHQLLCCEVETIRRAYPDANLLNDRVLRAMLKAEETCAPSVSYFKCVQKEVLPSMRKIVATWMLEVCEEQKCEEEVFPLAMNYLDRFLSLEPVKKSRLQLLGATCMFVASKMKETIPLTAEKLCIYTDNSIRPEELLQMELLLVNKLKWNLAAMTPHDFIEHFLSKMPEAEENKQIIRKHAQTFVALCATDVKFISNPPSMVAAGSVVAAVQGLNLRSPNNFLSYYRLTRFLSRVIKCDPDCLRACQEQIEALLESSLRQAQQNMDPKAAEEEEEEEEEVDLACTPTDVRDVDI
Test: In vitro IC50 profile for CDKs family kinase (33PanQinase radiometric assay)
Conditions: CDK7 selectivity profile in CDKs family
Measured Endpoint: IC50

Item CC(C)c1cnn2c(NCc3c(Cl)cccc3-n3ccc(C(C)(C)O)n3)nc(N3CCC(N)CC3)nc12 [Compound 210] with CDK6/CycD1 (Homo sapiens, UniProt Q00534) - IC50?
> 10 µM

====

Molecular target: CDK7/Cyclin H/MNAT1 (Homo sapiens)
Construct: purchased Invitrogen PR6749B
Sequence (P50613 whole entry): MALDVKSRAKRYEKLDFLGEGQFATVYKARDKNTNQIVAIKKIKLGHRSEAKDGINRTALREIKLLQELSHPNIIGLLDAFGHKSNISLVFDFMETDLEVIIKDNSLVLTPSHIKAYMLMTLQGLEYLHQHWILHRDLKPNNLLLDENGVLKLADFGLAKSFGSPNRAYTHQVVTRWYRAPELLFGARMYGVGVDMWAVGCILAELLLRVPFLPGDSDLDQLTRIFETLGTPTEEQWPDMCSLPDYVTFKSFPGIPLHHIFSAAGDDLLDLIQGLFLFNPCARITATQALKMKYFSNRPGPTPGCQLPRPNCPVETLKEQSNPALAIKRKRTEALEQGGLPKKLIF
Sequence (P51946 whole entry partner): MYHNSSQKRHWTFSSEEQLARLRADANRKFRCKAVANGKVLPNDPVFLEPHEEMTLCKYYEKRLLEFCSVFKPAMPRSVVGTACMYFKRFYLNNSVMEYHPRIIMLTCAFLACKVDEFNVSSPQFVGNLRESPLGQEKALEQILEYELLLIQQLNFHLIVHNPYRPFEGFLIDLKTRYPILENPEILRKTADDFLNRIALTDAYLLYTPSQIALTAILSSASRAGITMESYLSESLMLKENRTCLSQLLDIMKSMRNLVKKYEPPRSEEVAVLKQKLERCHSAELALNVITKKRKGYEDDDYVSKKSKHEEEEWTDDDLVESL
Sequence (P51948 whole entry partner): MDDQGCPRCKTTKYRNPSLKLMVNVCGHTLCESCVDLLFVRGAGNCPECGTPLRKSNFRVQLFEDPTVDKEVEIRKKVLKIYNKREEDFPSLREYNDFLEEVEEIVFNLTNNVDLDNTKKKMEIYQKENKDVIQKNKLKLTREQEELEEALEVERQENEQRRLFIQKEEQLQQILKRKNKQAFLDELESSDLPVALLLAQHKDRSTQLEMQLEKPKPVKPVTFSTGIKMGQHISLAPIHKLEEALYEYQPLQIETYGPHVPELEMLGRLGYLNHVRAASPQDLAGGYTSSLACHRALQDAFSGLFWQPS
Assay: Enzymatic assay for CDK7 (FRET based LANCE Ultra kinase assay)
Format: biochemical
Conditions: read-out: CDK7 enzymatic activity (IC50 range)
Each record here notes measured IC50.

Study these solved cases before continuing.
Entry CC(C)c1cnn2c(NCc3ccccc3-c3nc4ccccc4o3)nc(N3CCC(N)CC3)nc12 [Compound 97] : reported IC50 = ?
< 100 nM

Entry CC(C)c1cnn2c(NCc3c(Cl)cccc3C(C)(C)O)nc(N3CCC(N)CC3)nc12 [Compound 239] : reported IC50 = ?
< 100 nM

Entry CC(C)c1cnn2c(NCc3ccccc3-c3ccc4ccccc4n3)nc(N3CCC(O)(CN)CC3)nc12 [Compound 219] : reported IC50 = ?
< 100 nM

---
Entry CC(C)c1cnn2c(NCc3ccccc3-n3cc4ccncc4n3)nc(N3CCC(N)CC3)nc12 [Compound 139] : reported IC50 = ?
< 100 nM

Entry CNC(=O)c1ccc2nn(-c3ccccc3CNc3nc(N4CCC(N)CC4)nc4c(C(C)C)cnn34)cc2c1 [Compound 14] : reported IC50 = ?
< 100 nM

Entry CC(C)c1cnn2c(NCc3ccccc3-c3ccc4ccccc4n3)nc(NCC3(O)CCNCC3)nc12 [Compound 212] : reported IC50 = ?
< 100 nM

Entry CC(C)c1cnn2c(NCc3ccccc3-n3cc4ccc(C(F)(F)F)cc4n3)nc(N3CCC(N)CC3)nc12 [Compound 104] : reported IC50 = ?
< 100 nM

Entry CC(C)c1cnn2c(NCc3ccccc3-n3ccc(C(C)(C)O)n3)nc(N3CCC(O)(CN)CC3)nc12 [Compound 228] : reported IC50 = ?
< 100 nM

Entry CC(C)c1cnn2c(NCc3cccc4ncn(C)c34)nc(N3CCC(N)CC3)nc12 [Compound 16] : reported IC50 = ?
< 100 nM

Entry CNC(=O)c1cccnc1CNc1nc(N2CCC(N)CC2)nc2c(C(C)(C)C)cnn12 [Compound 15] : reported IC50 = ?
< 100 nM

Entry CC(=O)N(C)c1ccccc1CNc1nc(N2CCC(N)CC2)nc2c(C(C)C)cnn12 [Compound 64] : reported IC50 = ?
< 100 nM

Entry CC(C)c1cnn2c(NCc3cccc(Oc4ccccc4)c3)nc(N3CCC(N)CC3)nc12 [Compound 51] : reported IC50 = ?
< 100 nM

Entry CC(C)c1cnn2c(NCc3ccccc3-n3cc4ccccc4n3)nc(N3CCC(N)CC3)nc12 [Compound 72] : reported IC50 = ?
< 100 nM

Entry CC(C)c1cnn2c(NCc3ccccc3OCc3ccccc3)nc(N3CCC(N)CC3)nc12 [Compound 57] : reported IC50 = ?
< 100 nM

Entry Cc1ccc(-n2cccn2)cc1CNc1nc(N2CCC(N)CC2)nc2c(C(C)C)cnn12 [Compound 75] : reported IC50 = ?
< 100 nM

====

Each record here notes measured IC50.
Target: CDK1/Cyclin B (Homo sapiens, UniProt P06493)
Construct: purchased Invitrogen PR4768C
Sequence (P06493 whole entry): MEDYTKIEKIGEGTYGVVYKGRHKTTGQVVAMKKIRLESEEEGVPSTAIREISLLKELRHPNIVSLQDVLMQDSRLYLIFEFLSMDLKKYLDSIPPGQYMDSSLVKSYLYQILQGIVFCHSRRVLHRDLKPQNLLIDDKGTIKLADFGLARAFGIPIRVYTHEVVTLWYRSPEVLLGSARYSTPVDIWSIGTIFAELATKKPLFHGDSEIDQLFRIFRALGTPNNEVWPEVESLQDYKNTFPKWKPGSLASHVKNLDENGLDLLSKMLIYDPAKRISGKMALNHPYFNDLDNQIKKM
Sequence (P14635 whole entry partner): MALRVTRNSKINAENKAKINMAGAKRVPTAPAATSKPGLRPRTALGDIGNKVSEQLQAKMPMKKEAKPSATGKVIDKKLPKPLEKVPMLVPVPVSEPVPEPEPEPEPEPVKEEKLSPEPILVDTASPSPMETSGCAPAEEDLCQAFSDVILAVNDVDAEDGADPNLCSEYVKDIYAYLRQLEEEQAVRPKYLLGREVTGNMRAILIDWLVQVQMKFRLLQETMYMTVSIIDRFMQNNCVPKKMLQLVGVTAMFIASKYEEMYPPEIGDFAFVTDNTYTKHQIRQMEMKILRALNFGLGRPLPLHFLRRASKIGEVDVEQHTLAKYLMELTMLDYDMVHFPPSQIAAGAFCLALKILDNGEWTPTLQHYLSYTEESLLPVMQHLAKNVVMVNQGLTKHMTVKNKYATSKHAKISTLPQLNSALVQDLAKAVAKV
Assay: Enzymatic assay for CDK1 (FRET based LANCE Ultra kinase assay)
Type: biochemical
Settings: read-out: CDK1 enzymatic activity (IC50 range)

Entry CC(C)(C)c1cnn2c(NCc3c(F)cccc3-n3cccn3)nc(N3CCC(N)CC3)nc12 : reported IC50 = ?
> 1000 nM

Entry Cc1ccc(-n2cccn2)cc1CNc1nc(N2CCC(N)CC2)nc2c(C(C)C)cnn12 : reported IC50 = ?
> 1000 nM

Entry CC(C)c1cnn2c(NCc3c(Cl)cccc3-n3cc(N4CCNCC4)cn3)nc(N3CCC(N)CC3)nc12 : reported IC50 = ?
> 1000 nM

Entry COc1cccc(-c2cc3ccccc3[nH]2)c1CNc1nc(N2CCC(N)CC2)nc2c(C(C)C)cnn12 : reported IC50 = ?
> 1000 nM

Entry CC(C)c1cnn2c(NCc3ccccc3-n3cc4c(n3)CCCC4)nc(N3CCC(N)CC3)nc12 : reported IC50 = ?
> 1000 nM

---
Entry CC(C)c1cnn2c(NC(C)c3ccccc3-n3ccc(CO)n3)nc(N3CCC(N)CC3)nc12 (racemic) : reported IC50 = ?
> 1000 nM

Entry CC(C)c1cnn2c(NCc3cccc(Oc4ccc(Cl)c(NC(=O)CCCN(C)C)c4)c3)nc(N3CCC(N)CC3)nc12 : reported IC50 = ?
100 to 1000 nM

Entry Cc1nc2c(CNc3nc(N4CCC(N)CC4)nc4c(C(C)C)cnn34)cccc2o1 : reported IC50 = ?
100 to 1000 nM

Entry CC(C)c1cnn2c(NCc3ccccc3-n3cc4cccc(NC(=O)CCCN(C)C)c4n3)nc(N3CCC(N)CC3)nc12 : reported IC50 = ?
> 1000 nM

====

Target: CDK17/p35NCK (Homo sapiens)
Construct: either as full-length or enzymatically active fragments
Sequence (Q00537 whole entry, the tested form may be a part): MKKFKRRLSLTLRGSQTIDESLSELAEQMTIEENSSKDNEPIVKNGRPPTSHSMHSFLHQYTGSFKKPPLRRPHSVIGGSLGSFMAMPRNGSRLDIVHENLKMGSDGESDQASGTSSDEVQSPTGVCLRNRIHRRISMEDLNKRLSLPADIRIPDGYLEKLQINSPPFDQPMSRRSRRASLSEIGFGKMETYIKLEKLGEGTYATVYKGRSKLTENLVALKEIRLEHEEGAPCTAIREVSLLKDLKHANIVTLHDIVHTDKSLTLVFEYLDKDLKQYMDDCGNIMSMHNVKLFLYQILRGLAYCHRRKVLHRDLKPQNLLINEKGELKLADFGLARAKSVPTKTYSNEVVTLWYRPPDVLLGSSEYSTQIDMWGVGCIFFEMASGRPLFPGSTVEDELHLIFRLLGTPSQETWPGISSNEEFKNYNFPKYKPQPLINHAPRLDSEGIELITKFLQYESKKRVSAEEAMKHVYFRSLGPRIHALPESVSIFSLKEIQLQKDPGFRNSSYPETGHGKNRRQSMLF
Sequence (Q15078 whole entry partner, the tested form may be a part): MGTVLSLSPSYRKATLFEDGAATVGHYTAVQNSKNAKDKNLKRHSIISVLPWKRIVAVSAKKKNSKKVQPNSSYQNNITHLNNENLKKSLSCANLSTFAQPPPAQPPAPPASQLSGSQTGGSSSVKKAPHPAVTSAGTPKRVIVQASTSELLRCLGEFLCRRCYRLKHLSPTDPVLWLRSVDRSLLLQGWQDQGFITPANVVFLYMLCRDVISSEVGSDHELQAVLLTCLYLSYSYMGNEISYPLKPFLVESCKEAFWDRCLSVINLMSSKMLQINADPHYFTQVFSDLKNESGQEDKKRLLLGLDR
Assay: In vitro IC50 profile for CDKs family kinase (33PanQinase radiometric assay)
Details: CDK7 selectivity profile in CDKs family
pIC50: −log10 of the molar value.
Measured Endpoint: pIC50

Entry CC(C)c1cnn2c(NCc3c(Cl)cccc3-n3ccc(C(C)(C)O)n3)nc(N3CCC(N)CC3)nc12 : reported pIC50 = ?
< 5.00

====

Target: CDK1/Cyclin B (Homo sapiens)
Construct: purchased Invitrogen PR4768C
Assay: Enzymatic assay for CDK1 (FRET based LANCE Ultra kinase assay)
Assay type: biochemical
Settings: read-out: CDK1 enzymatic activity (IC50 range)
pIC50: −log10 of the molar value.
Measured Endpoint: pIC50

Study these solved cases before continuing.
Entry Cc1cccc(-n2cccn2)c1CNc1nc(N2CCC(N)CC2)nc2c(C(C)C)cnn12 : reported pIC50 = ?
< 6.00

Entry CC(C)c1cnn2c(NCc3ccccc3-c3cc4cccc(NC(=O)CCCN(C)C)c4[nH]3)nc(N3CCC(N)CC3)nc12 : reported pIC50 = ?
6.00 to 7.00

Entry CC(C)c1cnn2c(NCc3ccccc3-c3nc4ccccc4n3C)nc(N3CCC(N)CC3)nc12 : reported pIC50 = ?
< 6.00

Entry Cc1ccc(CNc2nc(N3CCC(N)CC3)nc3c(C(C)C)cnn23)c(-c2cc3ccccc3[nH]2)c1 : reported pIC50 = ?
6.00 to 7.00

Entry CC(C)c1cnn2c(NCc3ccccc3-n3cc4c(n3)CCNC4=O)nc(N3CCC(N)CC3)nc12 : reported pIC50 = ?
< 6.00

Entry CC(C)c1cnn2c(NCc3ccccc3-n3cccn3)nc(-c3ccc(Cl)c(C4CCNCC4)c3)nc12 : reported pIC50 = ?
< 6.00

Entry CC(C)c1cnn2c(NCc3ccccc3-n3cc4cc(Oc5ccccc5)ccc4n3)nc(N3CCC(N)CC3)nc12 : reported pIC50 = ?
< 6.00

Entry CC(C)c1cnn2c(NCc3ccccc3Nc3ccccc3)nc(N3CCC(N)CC3)nc12 : reported pIC50 = ?
< 6.00

---
Entry NC1CCN(c2nc(NCc3ccccc3-n3cccn3)n3ncc(C4CCCC4)c3n2)CC1 : reported pIC50 = ?
6.00 to 7.00

Entry CC(C)c1cnn2c(NCc3ccccc3N3CCCC3)nc(N3CCC(N)CC3)nc12 : reported pIC50 = ?
< 6.00

Entry CC[C@@H](N)COc1nc(NCc2ccccc2-c2ccc3ccccc3n2)n2ncc(C(C)C)c2n1 : reported pIC50 = ?
< 6.00

====

Tested on: A2780
Assay: Cellular A2780 viability assay (CellTiter-Glo, 72 hours)
Type: cell-based
Conditions: Homo sapiens
Measured Endpoint: IC50

Study these solved cases before continuing.
Entry CC(C)c1cnn2c(NCc3ccccc3-c3cc4ccccc4[nH]3)nc(N3CCC(N)(CO)CC3)nc12 [Compound 129] : reported IC50 = ?
≤ 1000 nM

Entry CC(C)c1cnn2c(NCc3c(Cl)cccc3-c3cccc(C(C)(C)O)n3)nc(N3CCC(N)CC3)nc12 [Compound 241] : reported IC50 = ?
≤ 1000 nM

Entry CC(C)c1cnn2c(NCc3ccccc3-c3ccc4ccccc4n3)nc(N3CCCC[C@H]3CO)nc12 [Compound 263] : reported IC50 = ?
> 10000 nM

Entry CC(C)c1cnn2c(NCc3ccccc3-c3ccc4ccccc4n3)nc(N[C@H]3CC[C@H](O)CC3)nc12 [Compound 266] : reported IC50 = ?
≤ 1000 nM

---
Entry CC(C)c1cnn2c(NCc3ccccc3-c3ccc4ccccc4n3)nc(N3CCCC[C@H]3CCO)nc12 [Compound 260] : reported IC50 = ?
1000 to 10000 nM

Entry CC(C)c1cnn2c(NCc3ccccc3-c3ccc4ccccc4n3)nc(NC[C@H]3CCNC[C@@H]3O)nc12 [Compound 225] : reported IC50 = ?
≤ 1000 nM

Entry CC(C)c1cnn2c(NCc3ccccc3-n3cccn3)nc(-c3cccc(OC4CCNC4)c3)nc12 (racemic) [Compound 163] : reported IC50 = ?
≤ 1000 nM

This collection of values is drawn from patent US11945822B2.
